pIC50: −log10 of the molar value.
Listed here: molecules with reported pIC50 for HIF PHD2 (Homo sapiens, UniProt Q9GZT9).

| smilesStructure | pIC50 |
| --- | --- |
| O=C(O)CNC(=O)C1=C(O)c2ccc(F)cc2C2(CCOCC2)C1=O | > 7.00 |
| CC1(C)C(=O)C(C(=O)NCC(=O)O)=C(O)c2c(C(F)(F)F)cccc21 | 6.30 to 7.00 |
| CC1(C)C(=O)C(C(=O)NCC(=O)O)=C(O)c2cc(-c3ccc(Cl)cc3)ccc21 | 6.00 to 6.30 |
| COCCCc1ccc2c(c1)C(C)(C)C(=O)C(C(=O)NCC(=O)O)=C2O | > 7.00 |

###

- targetUnderTest: HIF PHD2 (Homo sapiens, UniProt Q9GZT9)
- Sequence (Q9GZT9 whole entry): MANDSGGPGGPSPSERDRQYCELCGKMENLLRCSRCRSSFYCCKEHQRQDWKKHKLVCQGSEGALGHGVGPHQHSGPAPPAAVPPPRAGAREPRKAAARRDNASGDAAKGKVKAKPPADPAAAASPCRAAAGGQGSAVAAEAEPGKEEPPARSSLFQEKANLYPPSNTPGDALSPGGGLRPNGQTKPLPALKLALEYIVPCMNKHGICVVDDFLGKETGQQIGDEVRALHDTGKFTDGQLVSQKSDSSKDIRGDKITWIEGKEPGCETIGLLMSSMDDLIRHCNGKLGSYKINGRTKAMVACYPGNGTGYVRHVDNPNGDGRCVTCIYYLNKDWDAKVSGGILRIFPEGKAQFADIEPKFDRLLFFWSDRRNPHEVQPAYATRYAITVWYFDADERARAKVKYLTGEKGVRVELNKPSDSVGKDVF

| molecule | IC50 |
| --- | --- |
| C[C@@]1(C#N)C(=O)C(C(=O)CCC(=O)O)=C(O)c2cc(Cl)ccc21 (single isomer, unassigned) [Example 120] | 1 to 10 µM |
| CC1(C)C(=O)C(C(=O)CCC(=O)O)=C(O)c2cc(Br)ccc21 [Example 104] | < 0.1 µM |
| CC1(C)C(=O)C(C(=O)NCC(=O)O)=C(O)c2ccc(C(F)(F)F)cc21 [Example 49] | < 0.1 µM |
| C[C@@]1(C#N)C(=O)C(C(=O)NCC(=O)O)=C(O)c2ccccc21 [Example 87] | < 0.1 µM |
| C[C@@]1(C#N)C(=O)C(C(=O)NCC(=O)O)=C(O)c2cc(F)ccc21 (single isomer, unassigned) [Example 135] | < 0.1 µM |
| COc1ccc2c(c1)C(O)=C(C(=O)NCC(=O)O)C(=O)C21CCOCC1 [Example 16] | < 0.1 µM |
| O=C(O)CNC(=O)C1=C(O)c2cc(Cl)ccc2C2(CCCCC2)C1=O [Example 60] | 0.1 to 0.5 µM |
| O=C(O)CNC(=O)C1=C(O)c2cc(Cl)ccc2[C@]2(CCCOC2)C1=O [Example 76] | 0.1 to 0.5 µM |
| O=C(O)CNC(=O)C1=C(O)c2cccc(F)c2C2(CCOCC2)C1=O [Example 83] | < 0.1 µM |
| CC1(C)C(=O)C(C(=O)NCC(=O)O)=C(O)c2cc(Cl)c(Cl)cc21 [Example 64] | < 0.1 µM |
| C[C@@]1(c2ccccc2)C(O)=C(C(=O)NCC(=O)O)C(=O)c2ccccc21 (single isomer, unassigned) [Example 114] | 0.1 to 0.5 µM |
| O=C(O)CNC(=O)C1=C(O)c2cc(F)c(Cl)cc2C2(CCOCC2)C1=O [Example 97] | < 0.1 µM |
| CC1(C)C(=O)C(C(=O)NCC(=O)O)=C(O)c2cc(Cl)ccc21 [Example 2] | < 0.1 µM |
| C[C@@]1(c2ccc(Cl)cc2)C(=O)C(C(=O)NCC(=O)O)=C(O)c2cc(Cl)ccc21 (single isomer, unassigned) [Example 29] | 0.1 to 0.5 µM |
| C[C@]1(C#N)C(=O)C(C(=O)NCC(=O)O)=C(O)c2cc(Cl)ccc21 [Example 86] | < 0.1 µM |
| CC1(C)C(=O)C(C(=O)NCC(=O)O)=C(O)c2cc(Cl)cc(F)c21 [Example 57] | < 0.1 µM |

###

Consider the following IC50 values measured on HIF PHD2 (Homo sapiens).
measuredProperty: IC50

| smilesStructure | result |
| --- | --- |
| CC(C)(NC(=O)C1=C(O)c2cc(Cl)ccc2C2(CCOCC2)C1=O)C(=O)O | > 10000 nM |
| CC1(C)C(=O)C(C(=O)NCC(=O)O)=C(O)c2cc(-c3cccnc3)ccc21 | < 100 nM |
| COCC#Cc1ccc2c(c1)C(C)(C)C(=O)C(C(=O)NCC(=O)O)=C2O | < 100 nM |
| CC1(C)C(=O)C(C(=O)NCC(=O)O)=C(O)c2ccc(C#N)cc21 | < 100 nM |
